The reported numbers originate from patent US20160159924A1.

Each record here notes measured pKd.
molecular target: T1, recombinant human sc-uPA (human, UniProt P00749 21-431); assay: SPR, mAb immobilised
T1 construct: 411 amino acid single-chain zymogen expressed in HEK293; the 20-residue signal peptide is not present in the mature protein; also called human single-chain uPA; pro-uPA
Please keep in mind that pKd is minus log10 of the molar concentration; only the number is needed.

Example results:
>  <binder>
rec0266-0000-0010-VH_D95E (antibody, mouse IgG1, V domains shown) VH: DVKLVESGGGLVKPGGSLKLSCVASGFTFSSYTMSWVRQTPEKRLEWVATISGGGSHIYYADSVKGRFTISRDNAKNTLYLQMSSLKSEDTAIYYCTREGRDGSWFAYWGQGTLVTVSA VL: DIVMTQSPATLSVTPGDRVSLSCRTSQSIGDYLHWYQQKSHESPRLLIKYVSQSISGIPSRFSGSGSGSDFTLSINSVESEDVGVYYCQNSHSFPLTFGSGTKLELKR

>  <pKd>
8.70

$$$$
>  <binder>
rec0266-0000-0010-VH_D95R (antibody, mouse IgG1, V domains shown) VH: DVKLVESGGGLVKPGGSLKLSCVASGFTFSSYTMSWVRQTPEKRLEWVATISGGGSHIYYADSVKGRFTISRDNAKNTLYLQMSSLKSEDTAIYYCTRRGRDGSWFAYWGQGTLVTVSA VL: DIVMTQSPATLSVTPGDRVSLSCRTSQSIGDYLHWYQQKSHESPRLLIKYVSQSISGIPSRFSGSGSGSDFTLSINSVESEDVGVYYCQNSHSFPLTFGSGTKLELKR

>  <pKd>
8.89

$$$$

Consider the additional binder presented here.
Entry rec0266-0000-0010 (antibody, mouse IgG1, V domains shown, also called mAb rec0266-0000-0010) VH: DVKLVESGGGLVKPGGSLKLSCVASGFTFSSYTMSWVRQTPEKRLEWVATISGGGSHIYYADSVKGRFTISRDNAKNTLYLQMSSLKSEDTAIYYCTRDGRDGSWFAYWGQGTLVTVSA VL: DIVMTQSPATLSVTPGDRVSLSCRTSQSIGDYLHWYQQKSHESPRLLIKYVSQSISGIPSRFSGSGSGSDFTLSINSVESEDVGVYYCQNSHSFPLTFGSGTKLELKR ; pKd = 9.33
